# Read-out: Collagen IV, COL4A1 (gene 1282)
# Assay method text: BSK_MyoF_CollagenIV: BioMAP Diversity Plus: MyoF Assay for Collagen IV Biomarker Activity (AID 2284247)
# Measurement setup: primary human lung fibroblasts
Calls of active or inactive are those of the source. How the source made its calls: active means hit-call score of the fitted dose curve at least 0.9, where 1 is the maximum; inactive means score below 0.9.
Would you mind answering with one of these outcomes? t (active), f (inactive)

Consider the following illustrative entries.
[[record]]
structure_smiles = "CC(C)[N+](C)(CCOC(=O)C1c2ccccc2Oc2ccccc21)C(C)C"
assigned_category = "f"

[[record]]
structure_smiles = "CCCCCCCO"
assigned_category = "f"

[[record]]
structure_smiles = "CCOC(=O)/C=C\\C(=O)OCC"
assigned_category = "f"

[[record]]
structure_smiles = "Oc1ccc(/C=C/c2cc(O)cc(O)c2)cc1"
assigned_category = "f"

[[record]]
structure_smiles = "O=C(O)C(F)(F)C(F)(F)C(F)(F)C(F)(F)C(=O)O"
assigned_category = "f"

[[record]]
structure_smiles = "CCOC(=O)C1=NOC(c2ccccc2)(c2ccccc2)C1"
assigned_category = "f"


In: Lab log entry: `CC/C=C\C/C=C\C/C=C\CCCCCCCC(=O)OC` — outcome as called in the assay?
Out: t

In: Lab log entry: `CCCCCC1=CCCC1=O` — outcome as called in the assay?
Out: f

In: Lab log entry: `CC=C(C)C=CC=C(C)C` — outcome as called in the assay?
Out: t
